src = ChEMBL document CHEMBL5058577

Tested on: HEK-293T
Assay: Multiplex assay against HEK293T
Format: toxicity, cell-based
Details: human, 12 h, 1 µM, compound concentration 1 uM, replicate 1
# key: entry, value: Population Hoechst High Intensity Objects (%)
parameter: Population Hoechst High Intensity Objects (%)

compound: N[C@@]1(C(=O)O)CO[C@H]2[C@H](C(=O)O)[C@H]21 [LY-379268]
experimentalSystem: HEK-293T
resultUnits: %
readoutNumber: 5
--
compound: CN1CCN(c2nc3cc(C(F)(F)F)ccc3n3cccc23)CC1.O=C(O)/C=C\C(=O)O.O=C(O)/C=C\C(=O)O
experimentalSystem: HEK-293T
resultUnits: %
readoutNumber: 10
--
compound: CCCn1c(=O)c2[nH]c(C3CCCC3)nc2n(CCC)c1=O
experimentalSystem: HEK-293T
resultUnits: %
readoutNumber: 6
--
compound: CC(=O)NCCc1c(Cc2ccccc2)[nH]c2ccccc12 [LUZINDOLE]
experimentalSystem: HEK-293T
resultUnits: %
readoutNumber: 11
--
compound: CCCN1CCC[C@@H]2Cc3n[nH]cc3C[C@H]21.Cl [QUINPIROLE HYDROCHLORIDE]
experimentalSystem: HEK-293T
resultUnits: %
readoutNumber: 6
--
compound: O=C(O)Cc1ccccc1Nc1c(Cl)cccc1Cl [DICLOFENAC]
experimentalSystem: HEK-293T
resultUnits: %
readoutNumber: 5
--
compound: CC1(COc2ccc3c(c2)ncn3-c2ccc3cccc(N4CCC(N)CC4)c3n2)COC1 [CRENOLANIB]
experimentalSystem: HEK-293T
resultUnits: %
readoutNumber: 3
--
compound: C[C@@H]1C[C@H]2[C@@H]3CCC4=CC(=O)C=C[C@]4(C)[C@@]3(F)[C@@H](O)C[C@]2(C)[C@@]1(O)C(=O)CO [DEXAMETHASONE]
experimentalSystem: HEK-293T
resultUnits: %
readoutNumber: 2
--
compound: c1cc(OCCCN2CCCCC2)ccc1CN1CCCCC1 [JNJ-5207852]
experimentalSystem: HEK-293T
resultUnits: %
readoutNumber: 5

* * *

Tested on: HEK-293T
Assay: Multiplex assay against HEK293T
Type: toxicity, cell-based
Details: human, 12 h, 10 µM, compound concentration 10 uM, replicate 2
# key: entry, value: Population Pyknosed Nuclei (%)

compound: Cc1nc2ccc(Oc3ccc(F)cc3)cc2c(=O)n1C[C@H]1CCCN(C(C)C)C1.Cl
Population Pyknosed Nuclei (%): 17
--
compound: CCCn1c(=O)c2[nH]c(C3CCCC3)nc2n(CCC)c1=O
Population Pyknosed Nuclei (%): 16
--
compound: O=S(=O)(c1ccccc1)c1cnc2c(N3CCNCC3)cccc2c1 [INTEPIRDINE]
Population Pyknosed Nuclei (%): 15
--
compound: Oc1c(CN2CCN(c3ccccn3)CC2)cc(Cl)c2cccnc12
Population Pyknosed Nuclei (%): 12
--
compound: Cc1ccc(-c2ccc(F)cc2COc2ccc(CCC(=O)O)cc2)cc1
Population Pyknosed Nuclei (%): 9

* * *

Tested on: U2OS
Experiment: Multiplex assay against U2OS
Type: toxicity, cell-based
Details: human, 12 h, 10 µM, compound concentration 10 uM, replicate 2
# key: entry, value: Population Tubulin-Different-Phenotype (%)
parameter: Population Tubulin-Different-Phenotype (%)

compound: C[C@H](NC(=O)c1c(C(F)F)nn(C)c1Oc1cccc(C(F)(F)F)c1)c1ccc(C(=O)O)cc1
experimentalSystem: U2OS
result: 2%

compound: CNC[C@H](O)c1ccc(O)c(O)c1 [EPINEPHRINE]
experimentalSystem: U2OS
result: 6%

compound: CCOc1c2c(c(OCC)c3ncccc13)CN(c1ccc(CS(=O)(=O)NC(=O)Cc3ccccc3OC)cc1C)C2=O
experimentalSystem: U2OS
result: 3%

compound: COc1cc(C(=O)N(CCCc2ccccc2)Cc2ccc(CC(=O)O)cc2)cc(OC)c1C
experimentalSystem: U2OS
result: 4%

compound: CSc1ccccc1N1CCN(CCCCCC(=O)NC2CCCc3ccccc32)CC1.Cl (stereo not given)
experimentalSystem: U2OS
result: 98%
